- Procedure summary: self-splicing fitness, log relative to wild type (ln ratio); higher = more splicing; Tetrahymena group I intron in knt gene, E. coli kanamycin selection, DiMSum; sequences stand for … in CUCUCU…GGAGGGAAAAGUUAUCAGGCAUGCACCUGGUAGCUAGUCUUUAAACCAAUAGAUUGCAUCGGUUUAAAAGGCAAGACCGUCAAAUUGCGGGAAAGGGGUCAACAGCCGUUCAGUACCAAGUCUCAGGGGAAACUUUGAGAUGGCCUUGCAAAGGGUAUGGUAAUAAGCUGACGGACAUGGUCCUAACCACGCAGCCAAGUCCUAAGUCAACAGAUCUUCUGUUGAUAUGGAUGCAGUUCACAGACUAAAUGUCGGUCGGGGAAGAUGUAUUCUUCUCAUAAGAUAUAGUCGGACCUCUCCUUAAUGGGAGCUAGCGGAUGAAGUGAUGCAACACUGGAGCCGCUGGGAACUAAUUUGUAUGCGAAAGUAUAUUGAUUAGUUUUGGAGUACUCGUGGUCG;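 also: selection with 25 µg/mL kanamycin versus none on LB agar overnight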
- Test parameters: 30 °C
Outcome: criterion met for self-splicing fitness (ln) of at least -2; criterion not met for anything lower.

1. GGGUAGCAAUAUUACGAAGA ... criterion met
2. AUUUAGCAAUAUUACGGCGA ... criterion met
3. ACCAAGCAAUAUUACGAAAA ... criterion not met
4. CCGUAGCAAUAUUACGCAAC ... criterion not met
5. GGAGAGCAAUAUUACGCGCA ... criterion met
6. UGUAAGCAAUAUUACGAUAC ... criterion not met
7. UAGCAGCAAUAUUACGGAUA ... criterion met
8. ACGGAGCAAUAUUACGCCUA ... criterion not met

* * *

- Procedure summary: self-splicing fitness, log relative to wild type (ln ratio); higher = more splicing; Tetrahymena group I intron in knt gene, E. coli kanamycin selection, DiMSum; sequences stand for … in CUCUCU…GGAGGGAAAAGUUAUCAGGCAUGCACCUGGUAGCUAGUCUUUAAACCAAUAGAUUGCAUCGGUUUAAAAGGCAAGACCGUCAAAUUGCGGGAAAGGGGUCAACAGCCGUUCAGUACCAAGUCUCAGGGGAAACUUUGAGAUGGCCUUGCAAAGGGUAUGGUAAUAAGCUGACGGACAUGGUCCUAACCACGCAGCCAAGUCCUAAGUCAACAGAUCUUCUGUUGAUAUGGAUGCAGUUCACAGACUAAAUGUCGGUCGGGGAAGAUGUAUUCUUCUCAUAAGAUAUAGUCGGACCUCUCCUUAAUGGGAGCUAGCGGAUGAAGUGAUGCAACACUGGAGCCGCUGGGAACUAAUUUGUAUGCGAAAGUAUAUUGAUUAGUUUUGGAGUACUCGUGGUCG
- Test parameters: 37 °C
Readout type: self-splicing fitness (ln)

1) CCUCAGCAAUAUUACGUGUG ... -0.812
2) ACAUAGCAAUAUUACGUAAU ... -1.93
3) CACUAGCAAUAUUACGCGCC ... -1.22
4) CGGAAGCAAUAUUACGCCUA ... -0.963
5) AACGAGCAAUAUUACGAAGU ... -2.86
6) AGAGAGCAAUAUUACGCUCA ... -1.11
7) CUCGAGCAAUAUUACGACGG ... -0.385
8) UGGUAGCAAUAUUACGGUGA ... -1.34
9) CUCGAGCAAUAUUACGUGCA ... -1.01
10) AAUCAGCAAUAUUACGUACC ... -0.29
11) ACCAAGCAAUAUUACGCCCC ... 0.27
12) UGACAGCAAUAUUACGAAUG ... -0.604
13) GCGCAGCAAUAUUACGAAGC ... -2.37
14) GCCCAGCAAUAUUACGAGGU ... -3.07
15) GUAGAGCAAUAUUACGCGCU ... -2.85
16) UUAGAGCAAUAUUACGUCAC ... -2.76
17) AUGAAGCAAUAUUACGUUAA ... -0.908
18) CGCCAGCAAUAUUACGUGCA ... 0.212
19) UCAUAGCAAUAUUACGUACU ... -2.96
20) CGUAAGCAAUAUUACGAUCU ... -0.243
21) AUCGAGCAAUAUUACGCCGU ... -1.46
22) AUACAGCAAUAUUACGAGUG ... -1.34
23) GUUCAGCAAUAUUACGUGAU ... 0.43
24) UGAAAGCAAUAUUACGUCGG ... -0.446
25) UUAAAGCAAUAUUACGAUGA ... 0.681
26) CGCCAGCAAUAUUACGUCGG ... -1.91
27) CAACAGCAAUAUUACGCGAG ... -0.359
28) UUACAGCAAUAUUACGGCUG ... -1.42
29) AAUUAGCAAUAUUACGGCUA ... -0.685
30) AUAUAGCAAUAUUACGUGCA ... 0.00562
31) UCCUAGCAAUAUUACGCACA ... -1.45
32) CAUGAGCAAUAUUACGGUAU ... -3.54
33) CACAAGCAAUAUUACGAUGG ... 0.369
34) GUAGAGCAAUAUUACGUAGA ... -1.55
35) UUGUAGCAAUAUUACGGGCC ... -1.69
36) UACUAGCAAUAUUACGUGUC ... -2.79
37) CCAAAGCAAUAUUACGAAAA ... -2.85
38) CCAAAGCAAUAUUACGGGUC ... -3.1
39) UUGAAGCAAUAUUACGUUGG ... -0.305
40) ACGGAGCAAUAUUACGCCUA ... -1.6
41) CUGCAGCAAUAUUACGGAUC ... -2.38
42) CGCUAGCAAUAUUACGCUGU ... -2.3
43) UAUCAGCAAUAUUACGAGGA ... -1.39
44) GCGUAGCAAUAUUACGUCCG ... -1.48
45) GACGAGCAAUAUUACGGAUC ... -1.75
46) UUAUAGCAAUAUUACGACGA ... 0.212
47) CAAUAGCAAUAUUACGUCUA ... -2.52
48) AUAGAGCAAUAUUACGGUGC ... -2.21
49) GGCCAGCAAUAUUACGUCUA ... -1.29
50) UCGAAGCAAUAUUACGUGAC ... -2.88
51) GGCGAGCAAUAUUACGAAUC ... -0.145
52) UGGAAGCAAUAUUACGGCUC ... -1.42
53) ACUUAGCAAUAUUACGUCAC ... -1.91
54) GCCCAGCAAUAUUACGACCC ... -0.0967
55) UCGCAGCAAUAUUACGACUC ... -2.32
56) GUGAAGCAAUAUUACGCGAC ... -0.922
57) AGAGAGCAAUAUUACGGUAA ... -2.28
58) GGGAAGCAAUAUUACGCUGU ... -1.45
59) UUAGAGCAAUAUUACGCUCA ... -0.916
60) GCAUAGCAAUAUUACGCAAC ... -2.6
61) CCUUAGCAAUAUUACGUUGC ... -3.31
62) UGUAAGCAAUAUUACGUCCU ... 0.215
63) GAGGAGCAAUAUUACGGGCA ... -3.44
64) UUCAAGCAAUAUUACGUACA ... -0.478
65) CGUGAGCAAUAUUACGAUUU ... -2.24
66) CGGAAGCAAUAUUACGGUAA ... -2.23
67) AUAAAGCAAUAUUACGGAAG ... -0.18

* * *

- Procedure summary: self-splicing fitness, log relative to wild type (ln ratio); higher = more splicing; Tetrahymena group I intron in knt gene, E. coli kanamycin selection, DiMSum; sequences stand for … in CUCUCU…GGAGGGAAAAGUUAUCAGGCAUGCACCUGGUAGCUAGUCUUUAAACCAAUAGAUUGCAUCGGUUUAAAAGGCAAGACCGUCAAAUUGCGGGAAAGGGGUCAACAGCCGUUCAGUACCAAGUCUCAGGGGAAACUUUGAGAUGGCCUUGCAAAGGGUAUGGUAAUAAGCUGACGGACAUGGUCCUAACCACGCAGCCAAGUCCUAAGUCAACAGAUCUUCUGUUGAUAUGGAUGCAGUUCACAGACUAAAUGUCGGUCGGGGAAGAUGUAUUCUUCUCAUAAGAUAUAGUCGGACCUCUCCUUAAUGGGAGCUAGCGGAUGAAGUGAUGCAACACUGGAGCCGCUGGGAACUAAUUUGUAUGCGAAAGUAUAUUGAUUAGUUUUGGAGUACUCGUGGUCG
- Test parameters: 37 °C
Measured self-splicing fitness (ln) values are reported for all entries that follow.
Readout type: self-splicing fitness (ln)

1. CAUCAGCAAUAUUACGUAGU ... -0.682
2. AGCUAGCAAUAUUACGGCAA ... -0.284
3. GAUCAGCAAUAUUACGCAGA ... -0.891
4. AUGUAGCAAUAUUACGCCAG ... -1.05
5. CCAAAGCAAUAUUACGCCAC ... -2.01
6. CUGCAGCAAUAUUACGAUGC ... -1.92
7. GUUUAGCAAUAUUACGUUAA ... -1.68
8. CUGAAGCAAUAUUACGGAUA ... -1.19
9. GCUUAGCAAUAUUACGAAAU ... -0.498
10. CAAUAGCAAUAUUACGUGGG ... -3.49
11. UGCCAGCAAUAUUACGUGUU ... -1.67
12. GCAUAGCAAUAUUACGUCAU ... -1.89
13. GUACAGCAAUAUUACGGUCG ... -0.547
14. GGAAAGCAAUAUUACGGGCU ... -0.815
15. GUAUAGCAAUAUUACGAAGU ... -1.81
16. ACCUAGCAAUAUUACGAUUA ... -1.51
17. UUAGAGCAAUAUUACGCAGG ... -0.784
18. UGCAAGCAAUAUUACGAUAA ... -0.087
19. GACAAGCAAUAUUACGCCGU ... -0.97
20. AAAUAGCAAUAUUACGAAUC ... -2.29
21. CAGUAGCAAUAUUACGCCCG ... -0.351
22. CACGAGCAAUAUUACGUUGU ... -2.8
23. UACGAGCAAUAUUACGAAGU ... -2.41
24. AGAAAGCAAUAUUACGCUAA ... -1.11
25. CGUGAGCAAUAUUACGGAGA ... -1.57
26. AGAAAGCAAUAUUACGAUAU ... -0.792
27. UGAAAGCAAUAUUACGACAA ... -0.111
28. GGAGAGCAAUAUUACGAGAC ... -1.88
29. GCUGAGCAAUAUUACGAAGU ... -1.72
30. AGAUAGCAAUAUUACGGUUA ... -0.936
31. UUCAAGCAAUAUUACGAUCC ... -1.55
32. AUAAAGCAAUAUUACGGUCU ... 0.47
33. UUUUAGCAAUAUUACGUAUG ... -0.735
34. GGAUAGCAAUAUUACGUAUA ... -0.564
